- tgt: mNET (Mus musculus)
- methodDescription: [3H]MPP+ uptake inhibition in transiently transfected mNET-HEK cells
- Type: cell-based
- measurementContext: read-out: mNET-HEK IC50; 20 nM [3H]MPP+ uptake, 3 min
pIC50: −log10 of the molar value.
quantityMeasured: pIC50

molecule | quantitativeResult
CCN1C(=Cc2ccc3ccccc3[n+]2CC)C=Cc2ccccc21 [Decynium 22, 1,1’-diethyl-2,2’-cyanine] | 4.46

###

- tgt: mDAT (Mus musculus, UniProt Q61327)
- Sequence (Q61327 whole entry): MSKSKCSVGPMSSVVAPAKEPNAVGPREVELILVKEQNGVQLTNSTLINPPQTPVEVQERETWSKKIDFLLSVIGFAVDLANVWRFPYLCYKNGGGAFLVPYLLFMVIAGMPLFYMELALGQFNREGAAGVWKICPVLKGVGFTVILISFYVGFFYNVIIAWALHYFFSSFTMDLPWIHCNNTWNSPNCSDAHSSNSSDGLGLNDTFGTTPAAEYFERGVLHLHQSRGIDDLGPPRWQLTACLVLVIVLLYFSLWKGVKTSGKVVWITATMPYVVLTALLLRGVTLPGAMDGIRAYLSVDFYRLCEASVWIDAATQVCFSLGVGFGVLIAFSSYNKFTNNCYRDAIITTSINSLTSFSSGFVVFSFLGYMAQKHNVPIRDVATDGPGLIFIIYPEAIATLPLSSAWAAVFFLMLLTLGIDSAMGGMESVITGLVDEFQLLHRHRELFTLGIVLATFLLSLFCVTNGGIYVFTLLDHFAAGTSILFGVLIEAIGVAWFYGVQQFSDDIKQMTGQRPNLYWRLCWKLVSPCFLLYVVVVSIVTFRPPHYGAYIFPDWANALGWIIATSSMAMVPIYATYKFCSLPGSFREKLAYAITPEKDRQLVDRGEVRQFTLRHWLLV
- methodDescription: [3H]MPP+ uptake inhibition in transiently transfected mDAT-HEK cells
- Format: cell-based
- measurementContext: read-out: mDAT-HEK IC50; 20 nM [3H]MPP+ uptake, 3 min

smilesData | IC50
CCN1C(=Cc2ccc3ccccc3[n+]2CC)C=Cc2ccccc21 | 12.9 µM

###

- tgt: mSERT (Mus musculus, UniProt Q60857)
- methodDescription: [3H]5-HT uptake inhibition in transiently transfected mSERT-HEK cells
- Format: cell-based
- measurementContext: read-out: mSERT-HEK IC50; 100 nM [3H]5-HT uptake, 1 min; listed as D22

smilesData | measurementUnits | IC50
CCN1C(=Cc2ccc3ccccc3[n+]2CC)C=Cc2ccccc21 | µM | 8

###

- tgt: mSERT (Mus musculus)
- methodDescription: [3H]5-HT uptake inhibition in transiently transfected mSERT-HEK cells
- Format: cell-based
pIC50: −log10 of the molar value.

smilesData | tgt | pIC50
C[C@]12C[C@H](O)[C@H]3[C@@H](CCC4=CC(=O)CC[C@@]43C)[C@@H]1CC[C@@H]2C(=O)CO | mSERT (Mus musculus) | 3.35

###

- tgt: UniProt O75751
- methodDescription: [3H]MPP+ uptake competition in stable hOCT3-HEK cells
- Type: cell-based
- measurementContext: read-out: hOCT3-HEK IC50; 10 nM [3H]MPP+ uptake, 10 min room temperature
The following molecules are listed with their measured IC50 values.
quantityMeasured: IC50

smilesData | tgt | result
C[n+]1ccc(-c2ccccc2)cc1 | UniProt O75751 | 91 µM
CCN1C(=Cc2ccc3ccccc3[n+]2CC)C=Cc2ccccc21 | UniProt O75751 | 0.2 µM

###

- tgt: DAT (Mus musculus)
- Sequence (Q61327 whole entry): as above
- methodDescription: [3H]WIN 35428 binding displacement in mouse striatum homogenate
quantityMeasured: IC50 (µM)

smilesData | tgt | measurementUnits | quantitativeResult
NCCc1ccc(O)c(O)c1 | DAT (Mus musculus) | µM | 99.8
